Data origin: paper PMC11077047

Target: T1, Zur H36A (Streptomyces coelicolor, UniProt Q9L2H5 1-139, H36A)
T1 sequence: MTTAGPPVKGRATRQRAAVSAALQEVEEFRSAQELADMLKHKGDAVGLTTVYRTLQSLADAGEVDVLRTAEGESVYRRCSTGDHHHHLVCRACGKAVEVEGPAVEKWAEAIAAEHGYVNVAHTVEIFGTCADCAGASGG
Experiment: ITC; 4.0 eq Zn2+ per Zur dimer; N=2.0 dimers per DNA; K=3.3e5 M-1; ITC: 20 mM HEPES pH 7.8, 150 mM NaCl, 0.5 mM TCEP, 25 C. EMSA: 20 mM Tris-HCl pH 7.8, 150 mM NaCl, 5 mM DTT, 0.1 mg/ml BSA, 5% glycerol, 0.1 ug poly(dI-dC) per
Settings: protein: recombinant; chain copies: 2; label: 6-FAM in EMSA; blunt
measuredProperty: Kd

Req: Sample znuA 33 bp (zurbox site 1) (dsDNA) DNA 1: TCCGCTTGTTGACAACGGTTTCCATATTTGTTG DNA 2: CAACAAATATGGAAACCGTTGTCAACAAGCGGA — what was its Kd?
Resp: 3000 nM
